Data origin, for the record: ChEMBL document CHEMBL1123034

# systemUnderTest: Neuronal acetylcholine receptor
# Type: tissue-based, Brain
readoutKind: Kd (µM)
// note: answer is a bare numeric in µM

# Kd lookup, item C1CCNCC1
69

* * *

Give pKd for every item shown.
# systemUnderTest: Neuronal acetylcholine receptor
# Type: tissue-based, Brain
The scale used: pKd is minus the common logarithm of the concentration in molar units.

Bench note: what pKd did Nc1cccnc1 show?
3.42

Which measured pKd value corresponds to CCc1ccccn1 ?
4.00

What pKd value was documented for this compound, CN1CCCC1 ?
4.28

// lookup pKd for CCC1CCCCN1 (stereo not given)
2.10

Data request, read-out pKd, for CCCC1CCCCN1 (stereo not given)
4.01

Given CCCc1ccccn1 , state its recorded pKd.
5.77

Find the recorded pKd belonging to OC1CCCNC1 (stereo not given) and report it.
3.09

Report pKd for Nc1ccccn1 please.
3.70

Dear colleague, I am looking for the recorded pKd of the following compound: CN1CCC(O)CC1
2.47

Fill blank: measured pKd of the compound Cc1ccccn1 is ____.
7.30

* * *

# systemUnderTest: Neuronal acetylcholine receptor (Rattus norvegicus) (UniProt P04757+P09483+P12389+P12390+P12392+P43144+Q9JLB5+P12391+P43143+P20420+Q05941)
# experiment: Compounds was evaluate for their ability to enhance (+/-)-[3H]nicotine binding at a dose range 10 E -10 - 10 E -6 M was reported
# Type: protein-complex assay
Hi there, I'd appreciate the recorded Mean enhancement of binding for every entry that follows.
// keep it numeric: no unit symbol after the value

Which Mean enhancement of binding is listed for Nc1cccnc1 ?
2.4

Value lookup for Mean enhancement of binding; key = C1CCNC1 [PYRROLIDINE]
4.5

Given the molecule CCc1ccccn1 , what is its reported Mean enhancement of binding?
10.9

Please give the measured Mean enhancement of binding for this molecule: CN1CCCC1 [N-METHYL PYRROLIDINE (NMP)]
4.1

I'd like to know its Mean enhancement of binding. The molecule in question is CCc1cccnc1
5.4

Returns the measured Mean enhancement of binding for the input molecule. Input: CCN1CCCCC1
23

* * *

# systemUnderTest: Neuronal acetylcholine receptor
# Type: tissue-based, Brain
readoutKind: pKd
Reminder that pKd means the negative base-10 logarithm of the concentration expressed in mol/L.

Fill in: pKd of CC1CCCNC1 (stereo not given) is ___
3.05

Which value of pKd has been reported for CC1CCCCN1 (stereo not given) in the records?
2.49

I'd like to know its pKd. The compound in question is Cc1cccc(C)n1
2.00

If you can, please state the reported pKd value of c1ccncc1 .
2.48

Sample CCc1ccncc1 — what was its pKd?
4.06

Fill in: pKd of Cc1ccncc1 is ___
2.66

Which value of pKd has been reported for CN1C(=O)CCC1c1cccnc1 (stereo not given) in the records?
2.33

Could you share which pKd value was measured for C1CCNCC1 ?
6.92

So what does the record say about pKd for CC1CCNCC1 ?
2.41

Fill in the blank: the reported pKd of CCc1cccnc1 is ____.
5.02

Field request: pKd | item: CN1CCCCC1
2.92

Endpoint output: pKd of ON1CCCCC1 . Value?
2.22

For the compound OC1CCNCC1 , what pKd is on record?
2.52

Field request: pKd | item: CCN1CCCCC1
5.48

For Oc1ccccn1 , what is its reported pKd?
3.06
